Molecular target: recombinant human ALK5 (TGF-βR1) protein (Homo sapiens)
Construct: purchased Life Technologies PR9075A
Sequence (P36897 34-503): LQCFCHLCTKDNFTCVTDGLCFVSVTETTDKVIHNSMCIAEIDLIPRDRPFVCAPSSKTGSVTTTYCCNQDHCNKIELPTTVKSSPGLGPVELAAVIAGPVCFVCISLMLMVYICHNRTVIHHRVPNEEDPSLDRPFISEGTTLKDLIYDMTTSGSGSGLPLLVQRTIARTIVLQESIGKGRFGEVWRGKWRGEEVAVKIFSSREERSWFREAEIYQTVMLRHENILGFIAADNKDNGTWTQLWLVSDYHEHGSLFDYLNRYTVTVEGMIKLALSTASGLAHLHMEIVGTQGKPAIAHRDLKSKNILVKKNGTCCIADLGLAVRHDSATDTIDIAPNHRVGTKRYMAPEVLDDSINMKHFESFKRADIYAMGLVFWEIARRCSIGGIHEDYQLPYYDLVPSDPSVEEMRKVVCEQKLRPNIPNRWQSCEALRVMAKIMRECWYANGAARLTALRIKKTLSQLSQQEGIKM
Assay: Biochemical ALK5 (TGF-βR1) assay to measure pKi (LANCE Ultra ULight kinase assay)
Conditions: apparent pKi, converted from pIC50 by Cheng-Prusoff
Items are presented alongside their recorded Ki.

Q: Give Ki; test system recombinant human ALK5 (TGF-βR1) protein (Homo sapiens); compound Cc1cccc(-c2nccc(Nc3ccnc(Nc4ccc(S(=O)(=O)N5CCN(C(=O)NC(C)C)CC5)cc4)n3)n2)n1 [Compound 107]
A: 0.398 to 3.16 nM

Q: Give Ki; test system recombinant human ALK5 (TGF-βR1) protein (Homo sapiens); compound Cc1ccc(O)cc1-c1nccc(Nc2ccnc(Nc3ccc(N4CCC(N5CCN(C)CC5)CC4)cc3)n2)n1 [Compound 255]
A: 0.398 to 3.16 nM

Q: Give Ki; test system recombinant human ALK5 (TGF-βR1) protein (Homo sapiens); compound CCC(C)OC(=O)C1CNCCN1c1ccc(Nc2nccc(Nc3ccnc(-c4cccc(C)n4)n3)n2)cc1 (racemic) [Compound 230]
A: 0.398 to 3.16 nM

Q: Give Ki; test system recombinant human ALK5 (TGF-βR1) protein (Homo sapiens); compound Cc1cccc(-c2nc(Nc3ccnc(Nc4ccc(C(=O)O)cn4)n3)c3cccn3n2)n1 [Compound 1020]
A: 3.98 to 31.6 nM

Q: Give Ki; test system recombinant human ALK5 (TGF-βR1) protein (Homo sapiens); compound Cc1cccc(-c2nccc(Nc3ccnc(Nc4ccc(S(=O)(=O)N5CCOCC5)cc4)n3)n2)n1 [Compound 407]
A: 0.0398 to 0.316 nM

Q: Give Ki; test system recombinant human ALK5 (TGF-βR1) protein (Homo sapiens); compound Cc1cccc(-c2nccc(Nc3ccnc(Nc4cc(C(=O)OC5CNC5)ccn4)n3)n2)n1 [Compound 579]
A: 3.98 to 31.6 nM

Q: Give Ki; test system recombinant human ALK5 (TGF-βR1) protein (Homo sapiens); compound Cc1cccc(-c2nccc(Nc3ccnc(Nc4ccc(CN5CC(C(=O)OC6CNC6)C5)cc4)n3)n2)n1 [Compound 167]
A: 0.0398 to 0.316 nM

Q: Give Ki; test system recombinant human ALK5 (TGF-βR1) protein (Homo sapiens); compound Cc1cccc(-c2nccc(Nc3ccnc(Nc4cc(C(=O)OC5CNC5)cs4)n3)n2)n1 [Compound 207]
A: 0.0398 to 0.316 nM

Q: Give Ki; test system recombinant human ALK5 (TGF-βR1) protein (Homo sapiens); compound Cc1cccc(-c2nccc(Nc3ccnc(Nc4csc(C(=O)OC[C@H]5CC[C@H](N)CC5)c4)n3)n2)n1 [Compound 590]
A: 0.0398 to 0.316 nM

Q: Give Ki; test system recombinant human ALK5 (TGF-βR1) protein (Homo sapiens); compound Cc1cccc(-c2nccc(Nc3ccnc(Nc4cccc(C(=O)OC5CCNCC5)c4)n3)n2)n1 [Compound 66]
A: 0.398 to 3.16 nM

Q: Give Ki; test system recombinant human ALK5 (TGF-βR1) protein (Homo sapiens); compound COC(=O)C1CCCN(c2ccc(Nc3nccc(Nc4ccnc(-c5cccc(C)n5)n4)n3)cc2)C1 (stereo not drawn) [Compound 83]
A: 0.0398 to 0.316 nM

Q: Give Ki; test system recombinant human ALK5 (TGF-βR1) protein (Homo sapiens); compound COC(=O)CC1CN(Cc2cccc(Nc3nccc(Nc4ccnc(-c5cccc(C)n5)n4)n3)c2)CCN1 (stereo not drawn) [Compound 411]
A: 0.0398 to 0.316 nM

Q: Give Ki; test system recombinant human ALK5 (TGF-βR1) protein (Homo sapiens); compound Cc1cccc(-c2nccc(Nc3ccnc(Nc4ccc(NCC5(O)CNC5)cc4)n3)n2)n1 [Compound 490]
A: 0.0398 to 0.316 nM

Q: Give Ki; test system recombinant human ALK5 (TGF-βR1) protein (Homo sapiens); compound Fc1cc(F)c(-c2nccc(Nc3ccnc(Nc4ccc(N5CCC(N6CCCC6)CC5)cc4)n3)n2)cc1Cl [Compound 314]
A: 0.0398 to 0.316 nM

Q: Give Ki; test system recombinant human ALK5 (TGF-βR1) protein (Homo sapiens); compound Cc1cccc(-c2nccc(Nc3ccnc(Nc4cc(C(=O)O[C@H]5CCNC5)ccn4)n3)n2)n1 [Compound 632]
A: 3.98 to 31.6 nM

Q: Give Ki; test system recombinant human ALK5 (TGF-βR1) protein (Homo sapiens); compound Cc1cccc(-c2nccc(Nc3ccnc(Nc4ncc(N5CCNCC5)s4)n3)n2)n1 [Compound 640]
A: 3.98 to 31.6 nM

Q: Give Ki; test system recombinant human ALK5 (TGF-βR1) protein (Homo sapiens); compound Cc1cccc(-c2nccc(Nc3ccnc(Nc4ccc(N5CCNCC5)c(CC(=O)O)c4)n3)n2)n1 [Compound 95]
A: 0.0398 to 0.316 nM

Q: Give Ki; test system recombinant human ALK5 (TGF-βR1) protein (Homo sapiens); compound Cc1cccc(-c2nccc(Nc3ccnc(Nc4ccc(N5CCCC(C(=O)O[C@H]6CCNC6)C5)cc4)n3)n2)n1 (stereo partly drawn) [Compound 144]
A: ≤ 0.0316 nM

###

System: TGF-β-stimulated SMAD3 phosphorylation in BEAS-2B cells
Assay: Cellular ALK5 potency assay, inhibition of TGF-β stimulated pSMAD3 formation in BEAS-2B cells
Type: cell-based
Conditions: Homo sapiens, pSMAD3, TGF-β 10 ng/mL, read-out: BEAS2B pIC50 (converted)
Items are presented alongside their recorded IC50.

Cc1cccc(-c2nccc(Nc3ccnc(Nc4nc(C(=O)OC[C@H]5CCCCN5)cs4)n3)n2)n1 = 25.1 to 158 nM
Cc1cccc(-c2nccc(Nc3ccnc(Nc4ccc(CN5CCN6CCCC6C5)cc4)n3)n2)n1 (stereo not shown) = 25.1 to 158 nM
Cc1cccc(-c2nccc(Nc3ccnc(Nc4ccc(CN5CCC[C@@H](C(=O)OCC6CNC6)C5)cc4)n3)n2)n1 = 25.1 to 158 nM
Cc1cccc(-c2nccc(Nc3ccnc(Nc4ccc(CN5CCC(C(=O)O)C5)cc4)n3)n2)n1 (stereo not shown) = 25.1 to 158 nM
Cc1cccc(-c2nccc(Nc3ccnc(Nc4cccc(NCC5CNC5)c4)n3)n2)n1 = 25.1 to 158 nM
Cc1cccc(-c2nccc(Nc3ccnc(Nc4ccc(CN5CC(C)(CO)C5)cc4)n3)n2)n1 = 25.1 to 158 nM
Cc1cccc(-c2nccc(Nc3ccnc(Nc4ccnc(C(=O)OCC5CNC5)c4)n3)n2)n1 = 25.1 to 158 nM
Cc1cccc(-c2nccc(Nc3ccnc(Nc4ccc(NS(=O)(=O)N5CCNCC5)cc4)n3)n2)n1 = 200 to 1260 nM

Q: Determine its reported IC50: Cc1cccc(-c2nccc(Nc3ccnc(Nc4ccc(N(C)CC5CNC5)cc4)n3)n2)n1
A: 25.1 to 158 nM

Q: Determine its reported IC50: Cc1cccc(-c2nccc(Nc3ccnc(Nc4cnc(N5CCNCC5)nc4)n3)n2)n1
A: 200 to 1260 nM

Q: Determine its reported IC50: COc1cc(Nc2nccc(Nc3ccnc(-c4cccc(C)n4)n3)n2)ccc1NS(C)(=O)=O
A: 25.1 to 158 nM

Q: Determine its reported IC50: Cc1cccc(-c2nccc(Nc3ccnc(Nc4ccc(N5CCN(C)CC5)cc4)n3)n2)n1
A: 25.1 to 158 nM

Q: Determine its reported IC50: Cc1cccc(-c2nccc(Nc3ccnc(Nc4ccc(C(=O)O[C@H]5CCNC5)nc4)n3)n2)n1
A: 25.1 to 158 nM

Q: Determine its reported IC50: Cc1cccc(-c2nccc(Nc3ccnc(Nc4ccc(NC(=O)C5CCNCC5)cc4)n3)n2)n1
A: ≤ 20 nM

Q: Determine its reported IC50: Cc1cccc(-c2nccc(Nc3ccnc(Nc4ccc(CN5CC(C(=O)OCC6CNC6)C5)cc4)n3)n2)n1
A: 25.1 to 158 nM

Q: Determine its reported IC50: Cc1cccc(-c2nccc(Nc3ccnc(Nc4cccc(C(=O)O[C@@H]5CCNC5)c4)n3)n2)n1
A: 25.1 to 158 nM

Q: Determine its reported IC50: COC(=O)C1CNCCN1Cc1ccc(Nc2nccc(Nc3ccnc(-c4cccc(C)n4)n3)n2)cc1 (stereo not shown)
A: 25.1 to 158 nM

Q: Determine its reported IC50: Cc1cccc(-c2nccc(Nc3ccnc(Nc4csc(C(=O)N5CCN[C@@H](CO)C5)c4)n3)n2)n1
A: 25.1 to 158 nM

Q: Determine its reported IC50: Cc1cccc(-c2nccc(Nc3ccnc(Nc4ccc(NC[C@H]5CCCN5)cc4)n3)n2)n1
A: 25.1 to 158 nM

###

Items are presented alongside their recorded IC50.
Test system: TGF-β-stimulated SMAD3 phosphorylation in BEAS-2B cells
Assay: Cellular ALK5 potency assay, inhibition of TGF-β stimulated pSMAD3 formation in BEAS-2B cells
Assay type: cell-based
Settings: Homo sapiens, pSMAD3, TGF-β 10 ng/mL, read-out: BEAS2B pIC50 (converted)

Cc1cccc(-c2nccc(Nc3ccnc(Nc4ccc(NS(=O)(=O)c5c[nH]cn5)cc4)n3)n2)n1 [Compound 455] = 200 to 1260 nM
Cc1cccc(-c2nccc(Nc3ccnc(Nc4ccc(CN5CCC(CO)CC5)cc4)n3)n2)n1 [Compound 474] = 25.1 to 158 nM
Cc1cccc(-c2nccc(Nc3ccnc(Nc4ccc(NC(=O)C5CCNCC5)c(Cl)c4)n3)n2)n1 [Compound 158] = 25.1 to 158 nM
CNC1CCN(c2ccc(Nc3nccc(Nc4ccnc(-c5cccc(C)n5)n4)n3)cc2)CC1 [Compound 251] = 200 to 1260 nM
Cc1cccc(-c2nccc(Nc3ccnc(Nc4cc(C(=O)OC5CNC5)ccn4)n3)n2)n1 [Compound 579] = 25.1 to 158 nM

Here's the next entry for you.
Q: Give IC50; test system TGF-β-stimulated SMAD3 phosphorylation in BEAS-2B cells; compound Cc1cccc(-c2nccc(Nc3ccnc(Nc4ccc(CN5CCN(C)CC5)cc4)n3)n2)n1 [Compound 305]
A: 25.1 to 158 nM
